Quick reference: koff of the listed items.
Biological target: T1, hPD-L1-His (human, UniProt Q9NZQ7 19-238)
T1 construct: Bought protein; also called hPD-L1-His (manufactured by Edison); not shown: His tag
T1 sequence (Q9NZQ7 19-238 limits assumed): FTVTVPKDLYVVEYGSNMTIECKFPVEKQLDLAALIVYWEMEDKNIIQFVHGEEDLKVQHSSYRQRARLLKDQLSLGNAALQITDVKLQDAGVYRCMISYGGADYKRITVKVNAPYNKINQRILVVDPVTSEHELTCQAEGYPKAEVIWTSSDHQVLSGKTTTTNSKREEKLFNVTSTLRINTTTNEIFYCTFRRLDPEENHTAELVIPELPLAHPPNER
Test: SPR (Biacore T200), antibody on Protein A chip, hPD-L1-His injected, 1:1 fit
Method: Subsequently, the binding affinity of the anti-PD-L1 chimeric antibody, humanized antibody, and marketed control antibody to hPD-L1-His (manufactured by Edison) were determined by surface plasmon resonance (Biacore T200 biosensor, Biacore, INC, Piscataway N.J.) equipped with pre-immobilized Protein A sensor chips. The detection results were read after the chip was regenerated with pH 2.0 glycine (30 μl/min, 10-20 s). […]

binder | koff, s⁻¹
3F2-H1K1-IgG1 (antibody, V domains shown) VH: QVQLQESGPGLVKPSETLSLTCTVSGYSITSGYNWHWIRQFPGNGLEWMGYIHHSSITNYNPSLKSRITISRDTSKNQFSLKLSSVTAADTATYYCAREGYDYDWFAYWGQGTLVTVSS VL: DIVLTQSPDFQSVTPKEKVTITCRASQSISNNLHWYQQKPDESPKLLIKYASQSISGIPSRFSGSGSGTDFTLTINSVEAEDFAMYFCQQSKSWPFTFGQGTRLEIK | 0.000772
23-2A6-mHvKv-IgG1-N297A (antibody, V domains shown) VH: QVQLKESGPGLVAPSQSLSITCTVSGFSLTSYDISWIRQPPGKGLEWLGAIWTGGGTNYNSAFMSRLSISKDNSKSQVFLKMNSLQTDDTAIYYCVRDPYYYAMDYWGQGTSVTVSS VL: DIQMNQSPSSLSASLGDTITITCHASQNLNVWLSWYQQKPGNIPKLLIYKASNLHTGVPSRFSGSGSGTGFTLTISSLQPEDIATYYCQQGQSYPRTFGGGTKLEIK | 0.00266
7E4-H1K3-IgG1 (antibody, V domains shown) VH: QVQLVQSGAEVKKPGASVKVSCKASGFKFTDYAIHWVRQAPGQSLEWMGVISIYYGEASYNQKFKDRVTLTVDTSASTAYMELSSLRSEDTAVYYCAREDYYGSSSYFDYWGQGTLVTVSS VL: ENVLTQSPSFLSASVGDRVTMTCSASSSVSSSYLHWYQQKSGASPKPLIHRTSNLASGVPSRFSGSGSGTEYTLTISSVQPEDFATYYCQQWSGYPYTFGGGTKLEIK | 0.0017
7E4-H3K1-IgG1 (antibody, V domains shown) VH: QVQLVQSGAEVVKPGASVKISCKGSGFKFTDYAIHWVRQAPGKSLEWMGVISIYYGEASYNQKFKDKVTLTVDTSASTAYMELSSLRSEDTAIYYCAREDYYGSSSYFDYWGQGTLLTVSS VL: DNQLTQSPSFLSASVGDRVTITCSASSSVSSSYLHWYQQKPGAAPKPLIHRTSNLASGVPSRFSGSGSGTEFTLTISSLQPEDFATYYCQQWSGYPYTFGGGTKLEIK | 0.00352
7E4-H1K1-IgG1 (antibody, V domains shown) VH: QVQLVQSGAEVKKPGASVKVSCKASGFKFTDYAIHWVRQAPGQSLEWMGVISIYYGEASYNQKFKDRVTLTVDTSASTAYMELSSLRSEDTAVYYCAREDYYGSSSYFDYWGQGTLVTVSS VL: DNQLTQSPSFLSASVGDRVTITCSASSSVSSSYLHWYQQKPGAAPKPLIHRTSNLASGVPSRFSGSGSGTEFTLTISSLQPEDFATYYCQQWSGYPYTFGGGTKLEIK | 0.00313
